Entry source: PubChem BioAssay AID1963837

Tested on: 843126-344-R-J1-PDC complex spheroid viability
Method Summary: Anticancer human tumor 843126-344-R-J1-PDC patient-derived melanoma cell line growth inhibition [POLQ]
Conditions Used: curve of first compound; second compound 10 µM
Reported pIC50 values are given for each entry in this list.
Note: pIC50 values are expressed as the negative base-10 logarithm of concentration in M.

>>> value("COc1cccc(OCCCN)c1-c1cc(Nc2cnc(C#N)cn2)n[nH]1 + COC1C(OC(N)=O)C(O)C(Oc2ccc3c(O)c(NC(=O)c4ccc(O)c(CC=C(C)C)c4)c(=O)oc3c2C)OC1(C)C")
6.82

# input for lookup
Can you share its pIC50? I mean this compound: COc1cccc(OCCCN)c1-c1cc(Nc2cnc(C#N)cn2)n[nH]1 + Cc1cccc(N(C)C(=O)C2C(O)CCN2c2nc(C)cc(C(F)(F)F)c2C#N)c1
7.09
